- STUDY_SYSTEM: KRAS (Homo sapiens)
- Construct: endogenous in cells; host or cells: KE39 (KRAS amplified) cells
- Sequence (P01116 1-188 isoform P01116-2): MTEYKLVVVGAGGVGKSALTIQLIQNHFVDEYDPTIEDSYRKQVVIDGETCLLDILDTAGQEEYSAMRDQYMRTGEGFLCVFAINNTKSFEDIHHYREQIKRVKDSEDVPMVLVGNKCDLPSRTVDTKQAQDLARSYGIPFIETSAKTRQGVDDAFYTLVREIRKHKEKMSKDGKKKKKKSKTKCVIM
- PROTOCOL_DESCRIPTION: KRASamp MSD assay
- Assay type: cell-based
- CONDITION_LABEL: KE39 (KRAS amplified) cells, treated with test compounds for 24 hr, MSD readout of KRAS degradation
Here the recorded DC50 is given for each entry.

Some solved entries appear below for comparison.
>  <MOLECULE>
Cn1c(=O)n(C2CCC(=O)NC2=O)c2ccc(C3CCN(CC4CCN(C(=O)OC[C@@H]5CC[C@]6(COc7nc(N8CCC[C@@](C)(O)C8)c8cnc(-c9cc(O)cc%10ccc(F)c(F)c9%10)c(F)c8n7)CCCN56)CC4)CC3)cc21 (stereo partly shown) [Compound 410]

>  <DATA_VALUE>
< 1 nM

$$$$
>  <MOLECULE>
CCc1c(F)ccc2cc(O)cc(-c3ncc4c(N5CCC[C@@](C)(O)C5)nc(OC[C@]56CCCN5[C@H](COC(=O)NC5CCN(c7ccc8c(c7)n(C)c(=O)n8C7CCC(=O)NC7=O)CC5)CC6)nc4c3F)c12 (stereo partly shown) [Compound 308]

>  <DATA_VALUE>
< 1 nM

$$$$
>  <MOLECULE>
CCc1c(F)ccc2cc(O)cc(-c3ncc4c(N5CCC[C@@](C)(O)C5)nc(OC[C@@]56CCCN5[C@H](COC(=O)N5CCC(CN7CCC(c8ccc9c(c8)n(C)c(=O)n9C8CCC(=O)NC8=O)CC7)CC5)CC6)nc4c3F)c12 (stereo partly shown) [Compound 1]

>  <DATA_VALUE>
< 1 nM

$$$$

Field: next molecule
Need DC50 of C#Cc1c(F)ccc2cccc(-c3ncc4c(N5CCC[C@@](C)(O)C5)nc(OCC5(CN6CC7(C6)CN(c6ccc8c(c6)n(C)c(=O)n8C6CCC(=O)NC6=O)C7)CC5)nc4c3F)c12 (stereo partly shown) [Compound 31] , thanks. ≥ 10 nM

Source listed as patent US12599672B2.
